target: S1P1 receptor (human Endothelial Differentiation Gene 1 (EDG1)) (Homo sapiens, UniProt P21453); construct: TEV protease site; Gal4-VP16 transcription factor; experiment: S1P1 Tango Assay - 384 Well Format (EDG1-bla/U2OS cells); settings: agonist, beta-lactamase reporter
Sequence (P21453 whole entry, the tested form may be a part): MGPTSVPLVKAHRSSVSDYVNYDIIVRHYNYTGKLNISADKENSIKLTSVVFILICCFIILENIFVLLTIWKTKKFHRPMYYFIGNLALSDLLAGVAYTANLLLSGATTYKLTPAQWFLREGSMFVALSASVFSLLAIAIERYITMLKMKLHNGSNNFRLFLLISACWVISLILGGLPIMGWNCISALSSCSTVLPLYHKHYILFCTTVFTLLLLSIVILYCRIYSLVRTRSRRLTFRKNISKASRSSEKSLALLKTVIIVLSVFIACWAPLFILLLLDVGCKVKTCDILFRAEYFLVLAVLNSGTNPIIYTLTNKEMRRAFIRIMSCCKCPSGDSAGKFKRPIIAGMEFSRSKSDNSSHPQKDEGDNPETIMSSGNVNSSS
REPORTED_ENDPOINT: EC50

Here is how some compounds turned out for EC50.
| SMILES_STR | EC50 |
| --- | --- |
| CCc1cc(OCCCC(=O)O)ccc1-c1nc(-c2ccc(OC(C)C)c(C#N)c2)ns1 | ≤ 1 nM |
| CCc1cc(OCCNC)ccc1-c1noc(-c2ccc(OC(C)C)c(C#N)c2)n1 | ≤ 10 nM |
| CC(C)NCCCCOc1ccc(-c2noc(-c3ccc(OC(C)C)c(C#N)c3)n2)c(Cl)c1 | ≤ 10 nM |
| CNCCCCOc1ccc(-c2noc(-c3ccc(OC(C)C)c(C#N)c3)n2)c(Cl)c1 | ≤ 1 nM |
| COc1cc(OCCCCC(=O)O)ccc1-c1noc(-c2ccc(OC(C)C)c(C#N)c2)n1 | ≤ 1 nM |

Req: # query: EC50 of entry CCc1cc(OCCNC)ccc1-c1noc(-c2ccc(OC(C)C)c(Cl)c2)n1
Resp: ≤ 10 nM

Req: # query: EC50 of entry CC(C)Oc1ccc(-c2nc(-c3ccc(OCCCCN(C)C)cc3Cl)no2)cc1C#N
Resp: ≤ 10 nM

Req: # query: EC50 of entry CCc1cc(OCCCNC)ccc1-c1noc(-c2ccc(OC(C)C)c(Cl)c2)n1
Resp: ≤ 10 nM

Req: # query: EC50 of entry CCc1cc(OCCCNC)ccc1-c1cnc(-c2ccc(OC(C)C)c(C#N)c2)s1
Resp: ≤ 1000 nM

Req: # query: EC50 of entry CCc1cc(OCC(=O)O)ccc1-c1noc(-c2ccc(OC(C)C)c(C#N)c2)n1
Resp: ≤ 1 nM

Req: # query: EC50 of entry COCCOc1ccc(-c2noc(-c3ccc(OC(C)C)c(Cl)c3)n2)c(C)c1
Resp: ≤ 10 nM

Req: # query: EC50 of entry CCCNCCCCOc1ccc(-c2noc(-c3ccc(OC(C)C)c(C#N)c3)n2)c(Cl)c1
Resp: ≤ 10 nM

Req: # query: EC50 of entry CCc1cc(OCCCC(=O)O)ccc1-c1nnc(-c2ccc(OC(C)C)c(C#N)c2)s1
Resp: ≤ 1 nM

Req: # query: EC50 of entry CCc1cc(OCCCCNC)ccc1-c1noc(-c2ccc(OC(C)C)c(C#N)c2)n1
Resp: ≤ 10 nM

---

target: S1P1 receptor (human Endothelial Differentiation Gene 1 (EDG1)) (Homo sapiens, UniProt P21453); construct: TEV protease site; Gal4-VP16 transcription factor; assay: S1P1 Tango Assay - 384 Well Format (EDG1-bla/U2OS cells); details: agonist, beta-lactamase reporter
pEC50: −log10 of the molar value.
pEC50 for assorted compounds

Here is how some compounds turned out for pEC50.
| SMILES_STR | pEC50 |
| --- | --- |
| CNCCOc1ccc(-c2noc(-c3ccc(OC(C)C)c(Cl)c3)n2)c(C)c1 | ≥ 8.00 |
| CC(C)Oc1ccc(-c2nc(-c3ccc(OCCCC(=O)O)cc3)no2)cc1C#N | ≥ 9.00 |
| CCc1cc(OCCCC(=O)O)ccc1-c1noc(-c2ccc(OC(C)C)c(C#N)c2)n1 | ≥ 10.00 |
| CCc1cc(OCCCCC(=O)O)ccc1-c1noc(-c2ccc(OC(C)C)c(Cl)c2)n1 | ≥ 9.00 |
| CC(C)Oc1ccc(-c2nc(-c3ccc(OCCCCC(=O)O)cc3)no2)cc1C#N | ≥ 9.00 |
| CCc1cc(OCCCC(=O)O)ccc1-c1nnc(-c2ccc(OC(C)C)c(C#N)c2)o1 | ≥ 9.00 |
| CC(C)Oc1ccc(-c2nc(-c3ccc(OCC(=O)O)cc3F)no2)cc1C#N | ≥ 7.00 |
| CC(C)Oc1ccc(-c2nc(-c3ccc(OCCCC(=O)O)cc3Cl)no2)cc1C#N | ≥ 10.00 |

Req: # query: pEC50 of entry CC(C)Oc1ccc(-c2nc(-c3ccc(OCCCCC(=O)O)cc3Cl)no2)cc1C#N
Resp: ≥ 10.00

Req: # query: pEC50 of entry CCc1cc(OCCCCNC)ccc1-c1noc(-c2ccc(OC(C)C)c(Cl)c2)n1
Resp: ≥ 7.00
